Give measured OD450 for each item. Keep answers brief.
Target: T1, extracellular tau in the form of paired helical filaments (ePHF tau) (UniProt P10636-8 1-441, limits assumed)
T1 construct: Aggregated, hyperphosphorylated tau preparation; not a single defined polypeptide
T1 sequence (P10636 other isoform, or with tags, fused parts or gaps limits assumed): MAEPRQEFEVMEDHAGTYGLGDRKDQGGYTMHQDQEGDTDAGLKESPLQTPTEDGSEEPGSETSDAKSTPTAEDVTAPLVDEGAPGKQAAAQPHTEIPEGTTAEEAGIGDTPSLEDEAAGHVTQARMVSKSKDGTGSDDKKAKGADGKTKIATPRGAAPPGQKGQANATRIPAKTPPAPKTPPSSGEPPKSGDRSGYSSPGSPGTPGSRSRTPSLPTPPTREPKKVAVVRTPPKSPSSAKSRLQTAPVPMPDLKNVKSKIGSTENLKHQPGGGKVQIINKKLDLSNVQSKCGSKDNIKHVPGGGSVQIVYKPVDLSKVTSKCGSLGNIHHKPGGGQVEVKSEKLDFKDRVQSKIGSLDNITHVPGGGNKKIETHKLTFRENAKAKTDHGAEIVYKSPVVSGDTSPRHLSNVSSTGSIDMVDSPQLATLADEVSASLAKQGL
Experiment: ePHF tau ELISA, ePHF coated; antibody at 1000.0 ng/ml; anti-mouse-HRP
Give bare numbers, in OD450.

| BINDER | OD450 (OD450) |
| --- | --- |
| anti-tau antibody MC1 expressed from viral genome construct MC1LF.F2AH (TAU_ITR78; SEQ ID NO: 2067) (antibody, V domains shown) VH: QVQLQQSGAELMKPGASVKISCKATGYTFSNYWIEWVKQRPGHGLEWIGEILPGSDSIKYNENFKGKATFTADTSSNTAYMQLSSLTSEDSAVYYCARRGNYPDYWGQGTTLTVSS VL: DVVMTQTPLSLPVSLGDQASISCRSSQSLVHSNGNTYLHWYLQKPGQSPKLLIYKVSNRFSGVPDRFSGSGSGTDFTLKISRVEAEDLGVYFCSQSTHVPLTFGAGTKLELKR | 1.1 |
| anti-tau antibody MC1 expressed from viral genome construct MC1HF.P2AL (TAU_ITR73; SEQ ID NO: 2062) (antibody, V domains shown) VH: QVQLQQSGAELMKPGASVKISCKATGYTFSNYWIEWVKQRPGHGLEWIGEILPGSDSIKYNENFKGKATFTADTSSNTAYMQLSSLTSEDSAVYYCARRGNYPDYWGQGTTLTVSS VL: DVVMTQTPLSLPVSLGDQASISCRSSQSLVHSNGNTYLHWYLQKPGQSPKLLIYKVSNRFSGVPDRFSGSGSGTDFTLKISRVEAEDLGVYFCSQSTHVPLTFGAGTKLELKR | 0.9 |

// each binder listed below needs its OD450
1. anti-tau antibody MC1 expressed from viral genome construct MC1LF2AH (TAU_ITR79; SEQ ID NO: 2068) (antibody, V domains shown) VH: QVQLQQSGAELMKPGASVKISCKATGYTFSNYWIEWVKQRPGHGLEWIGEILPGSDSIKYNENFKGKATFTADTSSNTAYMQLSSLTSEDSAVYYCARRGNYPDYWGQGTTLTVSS VL: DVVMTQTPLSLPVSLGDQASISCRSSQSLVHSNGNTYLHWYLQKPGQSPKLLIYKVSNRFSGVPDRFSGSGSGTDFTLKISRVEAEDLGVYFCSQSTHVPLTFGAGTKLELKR
2. anti-tau antibody MC1 expressed from viral genome construct MC1LF.P2AH (TAU_ITR83; SEQ ID NO: 2072) (antibody, V domains shown) VH: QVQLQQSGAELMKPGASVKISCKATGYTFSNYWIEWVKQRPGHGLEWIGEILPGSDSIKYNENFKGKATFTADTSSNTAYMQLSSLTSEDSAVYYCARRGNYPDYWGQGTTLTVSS VL: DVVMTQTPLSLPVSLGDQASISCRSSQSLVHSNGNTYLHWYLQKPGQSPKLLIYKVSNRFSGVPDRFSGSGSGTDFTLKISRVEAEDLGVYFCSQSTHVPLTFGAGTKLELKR
3. anti-tau antibody MC1 expressed from viral genome construct MC1LIRESH (TAU_ITR80; SEQ ID NO: 2069) (antibody, mouse IgG1, kappa, V domains shown) VH: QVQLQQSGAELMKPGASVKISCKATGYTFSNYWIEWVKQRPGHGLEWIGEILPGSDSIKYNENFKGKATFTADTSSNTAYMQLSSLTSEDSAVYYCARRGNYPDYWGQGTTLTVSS VL: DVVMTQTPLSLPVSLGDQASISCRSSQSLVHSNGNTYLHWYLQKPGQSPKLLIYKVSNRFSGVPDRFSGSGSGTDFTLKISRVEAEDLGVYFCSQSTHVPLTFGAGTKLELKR

[1.1, 0.6, 1]
